Assay: Inhibition of TNFalpha in mouse L929 cells exposed to compound incubated for 1 hr with mouse TNFalpha by luminescence based assay
measure.name: IC50 (nM)

entry.smiles: CC1(C)C(=O)c2ccc(-c3cnc(N4CCN5C(=O)NC[C@@H]5C4)nc3)cc2N1Cc1cccnc1C#N
number: 99

entry.smiles: C[C@@H]1CN(c2ncc(-c3ccc4c(c3)N(Cc3cccnc3C#N)C(C)(C)C4=O)cn2)CCN1C(=O)CO
number: 119

entry.smiles: C[C@@H]1CN(c2ncc(-c3ccc4c(c3)N(Cc3ccccc3OC(F)F)C(C)(C)C4=O)cn2)CCN1C(=O)CO
number: 146

entry.smiles: CN1CCN(Cc2ccc(-c3c[nH]c4ccncc34)c(OCCc3ccc(-c4cccc5ccncc45)cc3)c2)CC1
number: 128

Taken from BindingDB's records for doi:10.1021/acs.jmedchem.0c01280.
